Read-out: Broad substrate specificity ATP-binding cassette transporter ABCG2 (Homo sapiens)
Protocol Text: LTEA_HepaRG_ABCG2: Life Technologies and Expression Analysis (LTEA) Assay for ABC Transporter (ABCG2) using HepaRG (AID 2283465)
Measurement Parameters: mRNA level, 48 h; actives raise or lower the signal
Protocol: LTEA_HepaRG is a cell based, multiplexed-readout assay that uses HepaRG, a human liver cell line, with measurements taken at 48 hours after chemical dosing on a 96-well plate.LTEA_HepaRG_ABCG2 is one of 102 assay component(s) measured in the LTEA HepaRG cell culture assay. It is a marker of Steatosis/NR mediated transport.Data from the assay component LTEA_HepaRG_ABCG2 was analyzed into 1 endpoint. […]
Activity calls are given as the source filed them. Rule for the calls: active = hit-call score of the fitted dose curve at least 0.9, where 1 is the maximum; inactive = score below 0.9.
Observable: AC50

Consider the reported AC50 for these compounds:
>>> endpoint_value("CC(O)CN(CCN(CC(C)O)CC(C)O)CC(C)O (stereo not given)")
"inactive"
>>> endpoint_value("CC/C(=C\\C(=N/O)C(N)=O)C(C)[N+](=O)[O-] (stereo not given)")
"inactive"
>>> endpoint_value("CNS(=O)(=O)c1cc(C(=O)N2CCC(CCN3C4CCC3CC(n3c(C)nc5ccccc53)C4)(c3cccc(F)c3)CC2)c(Cl)cc1F (stereo not given)")
"17.1 µM (active)"
>>> endpoint_value("Cc1c(-c2cccnc2)c2ccccc2n1CCCCC(=O)O")
"inactive"

Then there is this compound:
Which AC50 value belongs to "CCc1cc(SCc2sc(-c3ccc(C(F)(F)F)cc3)nc2CN2CCN(c3ccc(OC)cc3)CC2)ccc1OCC(=O)O" ?
7.49 µM (active)
